# Tested on: Plasmodium falciparum
# test-method-notes: Antiplasmodial activity against chloroquine-sensitive Plasmodium falciparum 3D7 infected in type B+ human erythrocytes assessed as inhibition of parasitemia after 48 hrs by Giemsa staining
# Type: functional, organism-based
# assay-conditions: 3D7, 48 h
Entries and their pIC50 values follow.
The value called pIC50 is obtained by taking minus log10 of the concentration in mol/L.

{"smiles-text": "C[C@@H]1CC[C@H]2[C@@H](C)C(=O)O[C@@H]3O[C@@]4(C)CC[C@@H]1[C@]32OO4", "pIC50": 8.40}

Please look at the following compound next.
Look up and report measured pIC50 (Plasmodium falciparum) for the following compound: C=CC(C)(C)c1cc(/C=C/C(=O)c2ccc(O)cc2)c(OC)cc1O 8.38

Entry source: ChEMBL document CHEMBL1154149
